# METHOD DESCRIPTION: Inhibition of trypsin at 10 uM
Activity calls are given as the source filed them. The calls are words filed in the database; no cut-off is given here.
OBSERVED PROPERTY: inhibition

// solved cases for inhibition follow
{"columns": ["STRUCTURE NOTATION", "TEST VALUE"],
 "data": [
  ["COc1cc(OC)c(C(=O)/C=C/c2cccc(Br)c2)c(O)c1CN1CCCC1", "1.3%"],
  ["COc1cc(OC)c(C(=O)/C=C/c2ccccc2Cl)c(O)c1CN1CCOCC1", "inactive"],
  ["COc1cc(OC)c(C(=O)/C=C/c2cccc(Cl)c2)c(O)c1CN1CCCCC1", "0.5%"],
  ["COc1cc(OC)c(C(=O)/C=C/c2cccc(Br)c2)c(O)c1CN1CCCCC1", "2.8%"],
  ["COc1cc(OC)c(C(=O)/C=C/c2ccccc2F)c(O)c1CN1CCN(C)CC1", "inactive"],
  ["O=C(O)c1ccccc1O", "89.2%"],
  ["COc1cc(OC)c(C(=O)/C=C/c2ccccc2Cl)c(O)c1CN1CCN(C)CC1", "0.1%"],
  ["COc1cc(OC)c(C(=O)/C=C/c2cccc(F)c2)c(O)c1CN1CCOCC1", "19.5%"],
  ["COc1cc(OC)c(C(=O)/C=C/c2ccccc2F)c(O)c1CN1CCCCC1", "1.4%"]
]}

What value of inhibition has been reported for the following compound? COc1cc(O)c(CN2CCCC2)c(O)c1C(=O)/C=C/c1ccccc1F 1.2%
